# measured target: T1, VAMP7 longin domain (UniProt P70280 1-120)
# T1 construct: VAMP7 (Ti-VAMP), longin domain; also called VAMP7LD; VAMP longin domain
# T1 sequence (looked up): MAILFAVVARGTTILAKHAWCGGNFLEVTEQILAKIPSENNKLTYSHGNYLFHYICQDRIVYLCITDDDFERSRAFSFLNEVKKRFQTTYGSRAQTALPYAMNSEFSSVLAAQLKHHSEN
# run description: ITC; Microcal Auto-iTC200; VAMP7 longin domain in the cell at 0.15–0.2 mM, GST delta constructs at 0.8–1.2 mM titrated; 50 mM HEPES pH 7.4, 200 mM NaCl, 4 mM ß-mercaptoethanol
# settings: both partners purified
pKd: −log10 of the molar value.

{"binder": "PFYIKSSPSPQKRYQDTPGVEHIPVVQIDLSVPLKVPGLPMSDQYVKLE (domain or fragment, UniProt O14617-5 680-728, looked up, source: Rosetta2(DE3)pLysS, purified (glutathione-Sepharose, Superdex 75)) [GST δ-adaptin (680–728)]", "pKd": 4.85}
